Assay remarks: SK-BR-3 cell growth inhibitors, pilot screen, 24 h, human (AID 572);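 also: compound exposure lasted between 18 and 24 h rather than exactly 24 h; 100% = carrier-treated control wells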
Condition parameters: SK-BR-3 viability, CellTiter-Glo luminescence, at 10 µM, stronger effect = lower value
# viability annotations
Report as a plain number; the unit % is understood.

A selection of reference data follows.
CSc1ccc(-c2cc(=O)c3ccccc3o2)cc1; 110
CCOC(=O)N1CCN(Cc2nc3c(c(=O)[nH]c(=O)n3C)n2Cc2cc(C)ccc2C)CC1; 102
O=C(NCc1nnc(SCC(=O)N2CCC(Cc3ccccc3)CC2)o1)c1ccccc1F; 85
Cc1cc(-c2ccccc2)nc(SCc2ccc(C(=O)O)o2)n1; 121

INPUT: Bench note: what viability did N#CC(C(=O)Nc1ccc(Cl)c(Cl)c1)=C1Nc2ccccc2N1 show?
OUTPUT: 90.5

INPUT: Bench note: what viability did COc1ccc2cc(CN(CCO)C(=O)c3ccc(Br)cc3)c(=O)[nH]c2c1 show?
OUTPUT: 98

INPUT: Bench note: what viability did CCOc1ccc(-c2nc(N)ncc2-c2ccccc2)c(O)c1 show?
OUTPUT: 136

INPUT: Bench note: what viability did O=C1NC(=O)C2(CCC(C(=O)O)C2)N1 (stereo unspecified) show?
OUTPUT: 93.5

INPUT: Bench note: what viability did CCn1c(=N)n(CC(=O)c2ccco2)c2ccccc21 show?
OUTPUT: 95

INPUT: Bench note: what viability did CCOc1ccc(S(=O)(=O)Nc2ccc(Cl)cn2)c(C)c1C show?
OUTPUT: 121

INPUT: Bench note: what viability did Cc1ccc2c(c1)N(CC(=O)N1CCCCC1c1cccnc1)C(=O)CO2 (stereo unspecified) show?
OUTPUT: 106

---

Assay remarks: reversal of MRP1-mediated doxorubicin resistance, pilot screen, H69AR cells, doxorubicin co-treatment (AID 601)
Condition parameters: H69AR cells + 2 uM doxorubicin, CellTiter-Glo, 72 h; at 10 µM; stronger effect = higher value
Activity calls are given as the source filed them.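 How the source made its calls: active means viability loss from added drug above about 55%, and viability with drug at most 40%, in both replicates (limit read from the data, passing the limit was not always enough); inconclusive means both conditions met in only one replicate; inactive means neither replicate meets both conditions.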
# differential viability (reversal) annotations

A selection of reference data follows.
O=C(NC1CCCCCC1)c1cc(S(=O)(=O)N2CCC3(CC2)OCCO3)ccc1F; -4.04% (inactive)
O=S(=O)(NC1CCCCC1NS(=O)(=O)c1ccc(F)cc1)c1ccc(F)cc1 (stereo unspecified); -1.67% (inactive)
Fc1cccc(Cl)c1Cn1nnc2c(NCc3ccccn3)ncnc21; 14.2% (inactive)
C=CCn1c(=O)c2ccccc2n2c(SC(C)C(=O)Nc3nc(-c4ccccc4)cs3)nnc12 (stereo unspecified); -2.34% (inactive)

INPUT: Bench note: what differential viability (reversal) did CCOc1ccc2c(O)csc2c1 show?
OUTPUT: 2.28% (inactive)

INPUT: Bench note: what differential viability (reversal) did Nc1nc(Nc2cccc3ccccc23)nc(C2CCCC2=O)n1 (stereo unspecified) show?
OUTPUT: 0.545% (inactive)

INPUT: Bench note: what differential viability (reversal) did CC(=O)Nc1sc2c(c1C#N)CCCCC2 show?
OUTPUT: 5.43% (inactive)

INPUT: Bench note: what differential viability (reversal) did O=C(NC1CCS(=O)(=O)C1)OC1CCCCC1 (stereo unspecified) show?
OUTPUT: -10.9% (inactive)

INPUT: Bench note: what differential viability (reversal) did Cc1ccc(S(=O)(=O)N2CCN(c3nc(C)nc4sc(C)c(C)c34)CC2)cc1 show?
OUTPUT: -2.76% (inactive)

INPUT: Bench note: what differential viability (reversal) did COc1ccc(CCNC(=O)CCN2C(=O)C3CC=CCC3C2=O)cc1OC (stereo unspecified) show?
OUTPUT: 12% (inactive)

INPUT: Bench note: what differential viability (reversal) did COC(=O)Cc1cc(=O)n(-c2ccccc2)[nH]1 show?
OUTPUT: -0.48% (inactive)

---

Assay remarks: growth suppression of yeast trafficking mutant, preliminary HTS, modulators of trafficking downstream of Golgi apparatus project, 1536-format plate, OD 615 nm (AID 637)
Condition parameters: yeast transport mutant growth, absorbance 615 nm, 18 h; stronger effect = higher value
Quantity measured: inhibition (%)
Report as a plain number; the unit % is understood.

A selection of reference data follows.
O=C(Nc1ccc(NC(=O)C2CC2)cn1)c1ccccc1Cl; -2.91
CC(C)CNC(=O)c1ccccc1NC(=O)CN(c1ccc2c(c1)OCCO2)S(C)(=O)=O; -8.23
Cc1csc(NC(=O)CCn2c(=O)oc3ccccc32)n1; 1.45
O=C(c1cnn2c(C(F)F)cc(-c3ccccc3)nc12)N1CCN2CCCC2C1 (stereo unspecified); 1.82
Cc1cc(C)n(Cc2cc(C)c(Cn3nc(C)cc3C)cc2C)n1; 1.64
CCN(CC)C(=O)C1=C(C)Nc2nnnn2C1c1cccnc1 (stereo unspecified); 3.11
Cn1c(=O)c(=O)n(C)c2cc(S(=O)(=O)N3CCCCC3)ccc21; 0.16
COC(=O)C1=CN(C)C=C(C(=O)OC)C1c1ccc(O)c(OC)c1; 4
COc1ccc(CN(C)CC(=O)c2c(N)n(Cc3ccccc3)c(=O)n(C)c2=O)c(OC)c1; 6.51
O=C(CCCn1c(=O)c2sccc2n(Cc2ccc(F)cc2)c1=O)NCc1ccco1; -4.44

INPUT: Bench note: what inhibition did Cn1ncc2c(Nc3ccccc3Br)ncnc21 show?
OUTPUT: -2.55

INPUT: Bench note: what inhibition did COCCCn1c(=N)c(C(=O)NCC2CCCO2)cc2c(=O)n3cccc(C)c3nc21 (stereo unspecified) show?
OUTPUT: 2.18

---

# viability annotations
Assay remarks: reversal of MRP1-mediated doxorubicin resistance, pilot screen, H69AR cells, doxorubicin co-treatment (AID 601)
Condition parameters: H69AR cells, CellTiter-Glo, 72 h; compound alone cytotoxicity; at 10 µM
Peptide text beside a SMILES is read from it. * marks the point of attachment. Boc = CC(C)(C)OC(=O)*
Report as a plain number; the unit % is understood.

CN(C)S(=O)(=O)c1ccc(C(=O)N2CCCC2c2nc3ccccc3s2)cc1 (stereo not given); 94.9
CCN(CC)CCCNc1oc(-c2cccc(Cl)c2)nc1C#N; 76.6
CSCCC(NC(=O)OC(C)(C)C)C(=O)NC(CC(C)C)C(N)=O (stereo not drawn) (Boc-Met-Leu-NH2; configuration not given here); 92
CCCOc1ccc(N2C(=O)CC(NCCCN3CCC(C(N)=O)CC3)C2=O)cc1 (stereo not given); 88.6
Cc1csc(NC(=O)c2ccoc2C)n1; 86.3

INPUT: Bench note: what viability did CCC(=O)N/C(N)=N/c1nc(C)c2cc(OC)ccc2n1 show?
OUTPUT: 80.7

INPUT: Bench note: what viability did CC1CCCC(C)N1CCNC(=O)C1CCN(S(=O)(=O)N2CCCCC2)CC1 (stereo not given) show?
OUTPUT: 104

INPUT: Bench note: what viability did COc1cc(/C=C/C(=O)CC(=O)/C=C/c2ccc(O)c(OC)c2)ccc1O show?
OUTPUT: 3.09

INPUT: Bench note: what viability did CN(CC(=O)N1CCN(c2ccccn2)CC1)S(=O)(=O)c1ccc2ccccc2c1 show?
OUTPUT: 89

INPUT: Bench note: what viability did CN(CC(=O)Nc1sccc1C#N)C1CCCCC1 show?
OUTPUT: 93.2

---

Assay remarks: reversal of MRP1-mediated doxorubicin resistance, pilot screen, H69AR cells, doxorubicin co-treatment (AID 601)
Condition parameters: H69AR cells + 2 uM doxorubicin, CellTiter-Glo, 72 h; measured here: viability with 2 uM doxorubicin; at 10 µM; stronger effect = lower value
Lab note: cut-off is 80%. Strictly less in viability is Fulfilled. Exactly 80% or more is Not fulfilled.

Example entries and their recorded answers appear below.
COC(=O)c1[nH]c2ccc(C)cc2c1NC(=O)CN1CCCC(C)(C)C1; Fulfilled
O=C(CN1C(=O)COc2ccccc21)NCCN1CCc2ccccc2C1; Not fulfilled
COCCCn1c(SCC(=O)N2CCc3ccccc32)nnc1-c1ccoc1C; Not fulfilled
c1ccc(-c2nc3cnccn3c2Nc2ccc3c(c2)OCCO3)cc1; Fulfilled

INPUT: Quick check: viability of O=C(CSc1nc2ccccc2o1)NC(=O)NCc1ccco1 under 80%?
OUTPUT: Not fulfilled

INPUT: Quick check: viability of O=C(NCc1ccco1)C1Cc2ccccc2CN1S(=O)(=O)c1ccccc1F (configuration not stated) under 80%?
OUTPUT: Fulfilled

INPUT: Quick check: viability of Cn1c(=O)cc(OCCCC(=O)Nc2ccc3c(c2)OCCO3)c2ccccc21 under 80%?
OUTPUT: Fulfilled

INPUT: Quick check: viability of COc1ccc(NC(=O)CCNC(=O)Cn2ccc3ccccc3c2=O)c(OC)c1 under 80%?
OUTPUT: Not fulfilled

INPUT: Quick check: viability of COc1ccccc1NC1=NC(c2ccc(Cl)cc2)N=C(N)N1 (configuration not stated) under 80%?
OUTPUT: Fulfilled

INPUT: Quick check: viability of CCCCC[C@H](O)/C=C/[C@H]1C=CC(=O)[C@@H]1C/C=C\CCCC(=O)O under 80%?
OUTPUT: Fulfilled

INPUT: Quick check: viability of CCOc1ccc(N(C)S(=O)(=O)c2ccc3[nH]cc(C(=O)NCC4CCCO4)c(=O)c3c2)cc1 (configuration not stated) under 80%?
OUTPUT: Not fulfilled

INPUT: Quick check: viability of CS(=O)(=O)NCc1nnc(SCC(=O)NC2CCCCC2)n1-c1ccc(F)cc1 under 80%?
OUTPUT: Not fulfilled

INPUT: Quick check: viability of COc1ccc(N2CCN(Cc3cc(=O)oc4cc(C)c(Cl)c(C)c34)CC2)cc1 under 80%?
OUTPUT: Fulfilled

INPUT: Quick check: viability of CCN(CC)CCn1c(OC)cc(=O)[nH]c1=O under 80%?
OUTPUT: Not fulfilled

INPUT: Quick check: viability of CCOc1ccc(NC(=O)c2ccncc2)cc1 under 80%?
OUTPUT: Not fulfilled

INPUT: Quick check: viability of CC(OC(=O)CNC(=O)C12CC3CC(CC(C3)C1)C2)C(=O)Nc1ccc(N2CCOCC2)cc1 (configuration not stated) under 80%?
OUTPUT: Not fulfilled

INPUT: Quick check: viability of Cc1cccc(NC(=O)CCCCCN2C(=O)c3ccccc3C2=O)n1 under 80%?
OUTPUT: Not fulfilled

INPUT: Quick check: viability of O=C(CN1C(=O)COc2ccccc21)N(Cc1cccnc1)Cc1ccccc1F under 80%?
OUTPUT: Fulfilled

INPUT: Quick check: viability of CC(=O)N1CCc2cc(S(=O)(=O)NCCC(=O)NC3CCCc4ccccc43)ccc21 (configuration not stated) under 80%?
OUTPUT: Not fulfilled
